Values were extracted from PubChem BioAssay AID2060484.

Tested on: SUM149PT spheroids with HUVEC/MSC, viability
Experiment: Anticancer human tumor SUM149PT cell line growth inhibition [GQUAD];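 also: spheroids exposed to drugs for seven days before readout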
Details: second compound 1 µM; first compound 1 µM; stronger effect = lower value
viability, T/C vs 20%: less than gives Met; not less than gives Not met.

Would you kindly verify if viability, T/C of Nc1ccn(C2OC(CO)C(O)C2(F)F)c(=O)n1 (stereo unspecified) + Cc1cnc(CNC(=O)c2c(=O)c3ccc(N4CCCN(C)CC4)nc3n3c2sc2ccccc23)cn1 is strictly less than 20%?
Met

Would you kindly verify if viability, T/C of O=c1[nH]cc(F)c(=O)[nH]1 + Cc1[nH]c2ccc(F)cc2c1-c1nc2c3cccnc3c3ncccc3c2[nH]1 is strictly less than 20%?
Not met

Would you kindly verify if viability, T/C of CC1COCCN1c1cc(-c2ccnn2C)c2ccnc(-c3ccn[nH]3)c2n1 (stereo unspecified) + Cc1cnc(CNC(=O)c2c(=O)c3ccc(N4CCCN(C)CC4)nc3n3c2sc2ccccc23)cn1 is strictly less than 20%?
Not met

Would you kindly verify if viability, T/C of O=C(c1cc(Cc2n[nH]c(=O)c3ccccc23)ccc1F)N1CCN(C(=O)C2CC2)CC1 + Cc1[nH]c2ccc(F)cc2c1-c1nc2c3cccnc3c3ncccc3c2[nH]1 is strictly less than 20%?
Not met

Would you kindly verify if viability, T/C of C=CCn1c(=O)c2cnc(Nc3ccc(N4CCN(C)CC4)cc3)nc2n1-c1cccc(C(C)(C)O)n1 + Cc1[nH]c2ccc(F)cc2c1-c1nc2c3cccnc3c3ncccc3c2[nH]1 is strictly less than 20%?
Not met

Turning now to a further record.
Would you kindly verify if viability, T/C of C=CCn1c(=O)c2cnc(Nc3ccc(N4CCN(C)CC4)cc3)nc2n1-c1cccc(C(C)(C)O)n1 + CN(C)c1ccc(Nc2c3ccc(NC(=O)CCN4CCCC4)cc3nc3cc(NC(=O)CCN4CCCC4)ccc23)cc1 is strictly less than 20%?
Met
